Values from ChEMBL document CHEMBL2434833

test-method-notes: Oral bioavailability in C57 mouse at 10 mg/kg
Format: ADME, organism-based
experimental-conditions: in vivo
For each of the molecules below, state its bioavailability.
Write the answer as a number in %, unit excluded.

Query: Using the record for CN[C@@H](C)C(=O)N[C@@H]1C(=O)N(Cc2c(C)ccc3ccccc23)c2ccc(C#N)cc2N(C(C)=O)[C@H]1C.Cl , state its measured bioavailability.
Result: 28

Query: Look up and report measured bioavailability for this entry: CN[C@@H](C)C(=O)N[C@@H]1C(=O)N(Cc2c(OC)ccc3ccccc23)c2ccc(C#N)cc2N(C(C)=O)[C@H]1C.Cl
Result: 8

###

test-method-notes: Tmax in C57 mouse at 10 mg/kg, po
Format: ADME, organism-based
Parameters: dose 10 mg/kg, route oral
experimental-conditions: in vivo
parameter-measured: Tmax (h)
Write it as a number; the unit h goes unstated.

Query: Give reported Tmax value for CN[C@@H](C)C(=O)N[C@@H]1C(=O)N(Cc2c(OC)ccc3ccccc23)c2ccc(C#N)cc2N(C(C)=O)[C@H]1C.Cl
Result: 4

Query: Provide measured Tmax value, entry: CN[C@@H](C)C(=O)N[C@@H]1C(=O)N(Cc2c(C)ccc3ccccc23)c2ccc(C#N)cc2N(C(C)=O)[C@H]1C.Cl
Result: 0.25
